Listing of recorded self-cleavage by entry.
B1: CPEB3 Ribozyme (parent)
chain: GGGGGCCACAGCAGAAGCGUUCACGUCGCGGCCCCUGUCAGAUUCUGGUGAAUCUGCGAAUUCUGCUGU

variants of: B1; assay: self-cleavage, relative activity (ratio to wild type); higher = more cleavage; co-transcriptional
// return a plain number; no unit text

Worked set:
PRIMARY_SEQUENCE	NUMERIC_READOUT
GGUGGCCACAGCAGAAGCGUUCACGUCGCGGCCCCUGUCAGAUUCUGGUGAAUCUGCGAAUUCUGCUGU [G3U]	0.195
GGGGGCCACAGCAGAAGCGUUUACGUCGCGGCCCCAGUCAGAUUCUGGUGAAUCUGCGAAUUCUGCUGU [C22U U36A]	0.196

We next turn to a different variant, shown below.
In: Need self-cleavage of GGGGGCCACAGCAGAAGUGUUCACGUAGCGGCCCCUGUCAGAUUCUGGUGAAUCUGCGAAUUCUGCUGU [C18U C27A] , thanks.
Out: 0.198
